# ASSAY_SYSTEM: Vasopressin V1a/V2 (Homo sapiens) (UniProt P30518+P37288)
# Sequence (P30518 whole entry, looked up): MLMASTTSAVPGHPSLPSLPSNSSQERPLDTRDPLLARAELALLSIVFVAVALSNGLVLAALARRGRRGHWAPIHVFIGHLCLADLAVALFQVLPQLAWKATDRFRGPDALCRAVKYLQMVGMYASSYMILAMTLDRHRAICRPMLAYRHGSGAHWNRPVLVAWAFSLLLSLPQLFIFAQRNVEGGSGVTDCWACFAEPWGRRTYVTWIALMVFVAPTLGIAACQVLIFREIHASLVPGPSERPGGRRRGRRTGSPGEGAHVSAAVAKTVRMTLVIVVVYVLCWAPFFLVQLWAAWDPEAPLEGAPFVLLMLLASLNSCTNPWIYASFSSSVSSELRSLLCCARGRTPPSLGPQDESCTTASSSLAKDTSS
# Sequence (P37288 whole entry, looked up): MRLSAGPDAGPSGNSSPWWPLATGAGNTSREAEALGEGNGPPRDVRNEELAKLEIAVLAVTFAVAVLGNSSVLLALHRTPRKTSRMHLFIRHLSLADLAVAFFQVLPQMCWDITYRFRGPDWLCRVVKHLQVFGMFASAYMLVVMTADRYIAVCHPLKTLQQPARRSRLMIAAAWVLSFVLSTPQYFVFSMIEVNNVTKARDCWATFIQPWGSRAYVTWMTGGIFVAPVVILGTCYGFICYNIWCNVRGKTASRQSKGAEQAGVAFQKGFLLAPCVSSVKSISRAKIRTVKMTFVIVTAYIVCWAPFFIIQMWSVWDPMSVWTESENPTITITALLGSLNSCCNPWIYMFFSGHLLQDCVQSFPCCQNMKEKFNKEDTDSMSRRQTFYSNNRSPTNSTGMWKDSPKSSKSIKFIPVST
# ASSAY_METHOD_TEXT: Selectivity ratio of EC50 for human vasopressin V2 receptor to EC50 for human vasopressin V1a receptor
Bridge positions count the residues as written; N and C are the ends. Square brackets hold non-standard residues; d marks the D form. Peptide text beside a SMILES is read from it. * marks the point of attachment. 2Thi = N[C@@H](Cc1cccs1)C(=O)O; NH(3-hydroxypropyl) = OCCCN*; NHCH(CH2OH)2 = OCC(CO)N*; Orn = NCCC[C@H](N)C(=O)O; Dab = NCC[C@H](N)C(=O)O
Examples of molecules with documented Ratio EC50 follow.

Examples with answers:
CC[C@H](C)[C@@H]1NC(=O)[C@H](Cc2cccs2)NC(=O)[C@@H](N)CSSC[C@@H](C(=O)N2CCC[C@H]2C(=O)N[C@@H](CCN)C(=O)NCC(N)=O)NC(=O)[C@H](CC(N)=O)NC(=O)[C@H](CC(N)=O)NC1=O (H-C[2Thi]INNCP[Dab]G-NH2; disulfide 1-6) ... > 830
CC[C@H](C)[C@@H]1NC(=O)[C@H](Cc2ccccc2)NC(=O)[C@@H](N)CSSC[C@@H](C(=O)N2CCC[C@H]2C(=O)N[C@@H](CCCN)C(=O)NCC(N)=O)NC(=O)[C@H](CC(N)=O)NC(=O)[C@H](CC(=O)NCCCO)NC1=O (H-CFID(NH(3-hydroxypropyl))NCP[Orn]G-NH2; disulfide 1-6) ... > 4700
CC[C@H](C)[C@@H]1NC(=O)[C@H](Cc2ccccc2)NC(=O)[C@@H](N)CSSC[C@@H](C(=O)N2CCC[C@H]2C(=O)N[C@@H](CCN)C(=O)NCC(N)=O)NC(=O)[C@H](CC(N)=O)NC(=O)[C@H](CC(N)=O)NC1=O (H-CFINNCP[Dab]G-NH2; disulfide 1-6) ... > 3400
CCNC(=O)C[C@@H]1NC(=O)[C@H]([C@@H](C)CC)NC(=O)[C@H](Cc2ccccc2)NC(=O)[C@@H](N)CSSC[C@@H](C(=O)N2CCC[C@H]2C(=O)N[C@@H](CCCN)C(=O)NCC(N)=O)NC(=O)[C@H](CC(N)=O)NC1=O (H-CFID(NHEt)NCP[Orn]G-NH2; disulfide 1-6) ... > 1700

Proceeding to the next molecule to report its Ratio EC50.
Q: Recall and state the measured Ratio EC50 for CC[C@H](C)[C@@H]1NC(=O)[C@H](Cc2ccccc2)NC(=O)[C@@H](N)CSSC[C@@H](C(=O)N2CCC[C@H]2C(=O)N[C@@H](CCCN)C(=O)NCC(N)=O)NC(=O)[C@H](CC(N)=O)NC(=O)[C@H](CC(=O)NC(CO)CO)NC1=O (H-CFID(NHCH(CH2OH)2)NCP[Orn]G-NH2; disulfide 1-6) .
A: > 620

// data source = ChEMBL document CHEMBL1817572
